Source listed as the supplement of paper PMC11208160.

Test: recombinant barcode read abundance after kanamycin selection (control-corrected) (log10(CPM+1)); higher = more efficient recombination; sequences stand for … in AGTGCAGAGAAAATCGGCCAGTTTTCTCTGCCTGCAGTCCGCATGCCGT…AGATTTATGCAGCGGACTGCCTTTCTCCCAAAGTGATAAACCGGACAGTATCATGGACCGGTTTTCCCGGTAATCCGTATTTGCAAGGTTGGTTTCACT; site = the 11-nt target
recombinant barcode read abundance (log10) values for the sequences below.

As a guide, the following entries are already answered.
Report recombinant barcode read abundance (log10) for GGTCGAGCTTGGGTTCTAACCTGTTGCCT (site GGTCGCGCTAG) please. 0.0193

Report recombinant barcode read abundance (log10) for TAAGTCACTTGGGTTCTAACCTGTTGCCT (site GAAGTCACTAG) please. 0.0452

Report recombinant barcode read abundance (log10) for ATCTTACCTTGGGTTCTAACCTGTTGCCT (site ATCTTACCTAG) please. 0.681

Report recombinant barcode read abundance (log10) for GGATCCACTTGGGTTCTAACCTGTTGCCA (site GGATGCACTTG) please. 0.0631

Now turn to the next sequence.
Report recombinant barcode read abundance (log10) for TCGAATCCTTGGGTTCTAACCTGTTGCCT (site TCGAAACCTAG) please. 0.0251

###

recombinant barcode read abundance (log10) values for the sequences below.
Assay: recombinant barcode read abundance after kanamycin selection (control-corrected) (log10(CPM+1)); higher = more efficient recombination; sequences stand for … in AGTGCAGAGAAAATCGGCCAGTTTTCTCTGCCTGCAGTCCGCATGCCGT…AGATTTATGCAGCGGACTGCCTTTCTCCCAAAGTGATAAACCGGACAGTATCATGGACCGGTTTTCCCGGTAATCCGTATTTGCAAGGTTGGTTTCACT; site = the 11-nt target
Answer with a number only.

Report recombinant barcode read abundance (log10) for CTTCGTCCTTGGGTTCTAACCTGTTGCCT (site CTTCGTCCTAG) please. 0.804

Report recombinant barcode read abundance (log10) for CACGGTCCTTGGGTTCTAACCTGTTGCGG (site CACGGTCCTCC) please. 3.16

Report recombinant barcode read abundance (log10) for AGGATAACTTGGGTTCTAACCTGTTGCCT (site AGGATAACTAG) please. 0.655

Continuing:
Report recombinant barcode read abundance (log10) for CAGTTAGCTTGGGTTCTAACCTGTTGCCT (site CAGTTCGCTAG) please. 0.182

Report recombinant barcode read abundance (log10) for CAATCGTCTTGGGTTCTAACCTGTTGCGG (site CAATCGTCTCC) please. 1.68

Report recombinant barcode read abundance (log10) for TCTTGTCCTTGGGTTCTAACCTGTTGCGA (site TCTTGTCCTAC) please. 0.0306

Report recombinant barcode read abundance (log10) for AGATAGCCTTGGGTTCTAACCTGTTGCCT (site TGATAGCCTAG) please. 0.206

Report recombinant barcode read abundance (log10) for ATGGATCCTTGGGTTCTAACCTGTTGCGT (site AGGGATCCTAC) please. 0.758

Report recombinant barcode read abundance (log10) for GCGTCGGCTTGGGTTCTAACCTGTTGCCT (site GCTTCGGCTAG) please. 0.405

Report recombinant barcode read abundance (log10) for GTGGTTCCTTGGGTTCTAACCTGTTGCCT (site GTGGTTCCTAG) please. 1.61

Report recombinant barcode read abundance (log10) for TTCAAGTCTTGGGTTCTAACCTGTTGCCT (site TTCAAGACTAG) please. 0.102

Report recombinant barcode read abundance (log10) for CGGTCTACTTGGGTTCTAACCTGTTGCCT (site CAGTCTACTAG) please. 0.0894

Report recombinant barcode read abundance (log10) for CCGCTACCTTGGGTTCTAACCTGTTGCGG (site CCGCTACCTCC) please. 0.474

Report recombinant barcode read abundance (log10) for GGTGGTCCTTGGGTTCTAACCTGTTGCCT (site GGTTGTCCTAG) please. 0.178

Report recombinant barcode read abundance (log10) for TCAGATTCTTGGGTTCTAACCTGTTGCCT (site TCAGATTCTAG) please. 0.78

Report recombinant barcode read abundance (log10) for GTGCTAACTTGGGTTCTAACCTGTTGCCA (site ATGCTAACTAG) please. 0.0637

Report recombinant barcode read abundance (log10) for TGGTCTACTTGGGTTCTAACCTGTTGCTT (site TGTTCTACTAA) please. 0.0113

Report recombinant barcode read abundance (log10) for AGGCATCCTTGGGTTCTAACCTGTTGCCT (site ATGCATCCTAG) please. 0.0852

Report recombinant barcode read abundance (log10) for TAGACTGCTTGGGTTCTAACCTGTTGCCT (site TAGTCTGCTAG) please. 0.451

###

Experiment: recombinant UMI read abundance after kanamycin selection (control-corrected) (log10(CPM+1)); higher = more efficient recombination; extreme values may be limits of the assay; sequences stand for … in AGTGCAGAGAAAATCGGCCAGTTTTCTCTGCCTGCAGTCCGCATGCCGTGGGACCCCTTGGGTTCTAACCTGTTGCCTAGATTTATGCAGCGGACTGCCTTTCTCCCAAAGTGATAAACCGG…AGGTTGGTTTCACT; site = the 11-nt donor
recombinant UMI read abundance (log10) values for the sequences below.
Answer with a number only.

As a guide, the following entries are already answered.
Report recombinant UMI read abundance (log10) for TTACGCTCATGGACCGGTTTTCCCGGTAATCCGTATTTGAT (site TTACGCTCTAT) please. 1.93

Report recombinant UMI read abundance (log10) for AAGCTCACATGGACCGGTTTTCCCGGTAATCCGTATTTGAT (site CAGCTCACTAT) please. 1.5

Continuing:
Report recombinant UMI read abundance (log10) for ATACTATCATGGACCGGTTTTCCCGGTAATCCGTATTTGCA (site ATACTATCTTG) please. 2.84

Report recombinant UMI read abundance (log10) for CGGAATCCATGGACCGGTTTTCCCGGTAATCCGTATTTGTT (site CCGAATCCTAG) please. 0

Report recombinant UMI read abundance (log10) for CGCCTGACATGGACCGGTTTTCCCGGTAATCCGTATTTGAG (site CGCCTGACTCT) please. 0.947

Report recombinant UMI read abundance (log10) for TAGGGATCATGGACCGGTTTTCCCGGTAATCCGTATTTGCG (site TAGGAATCTCG) please. 2.07

Report recombinant UMI read abundance (log10) for CCTCAGCCATGGACCGGTTTTCCCGGTAATCCGTATTTGGC (site CCTCAGCCTGC) please. 0

Report recombinant UMI read abundance (log10) for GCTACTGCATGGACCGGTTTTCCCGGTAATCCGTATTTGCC (site GCTACAGCTGG) please. 0

Report recombinant UMI read abundance (log10) for GTGAATGCATGGACCGGTTTTCCCGGTAATCCGTATTTGGT (site GTGGATGCTAC) please. 1.94

Report recombinant UMI read abundance (log10) for CTTAATACATGGACCGGTTTTCCCGGTAATCCGTATTTGGC (site CATAATACTGC) please. 0.00796

Report recombinant UMI read abundance (log10) for ATAGTATCATGGACCGGTTTTCCCGGTAATCCGTATTTGCA (site ATAGTATCTTG) please. 3.37

###

Assay: recombinant barcode read abundance after kanamycin selection (control-corrected) (log10(CPM+1)); higher = more efficient recombination; sequences stand for … in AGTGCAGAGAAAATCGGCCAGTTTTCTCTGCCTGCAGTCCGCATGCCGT…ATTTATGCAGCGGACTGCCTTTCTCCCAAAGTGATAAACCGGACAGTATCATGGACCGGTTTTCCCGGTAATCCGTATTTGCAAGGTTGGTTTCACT; site = the 11-nt target
attribute-measured: recombinant barcode read abundance (log10)

As a guide, the following entries are already answered.
Report recombinant barcode read abundance (log10) for AGGCCTCTGTGGGTTCTAACCTGTTGCCTCA [AGGCCTCCTAG_LTGcore_TG_RTGcore_TG] (site AGGCCTCCTAG) (LTG core: TG, RTG core: TG) please. 0.186

Report recombinant barcode read abundance (log10) for AAACATGCTTGGGTTCTAACCTGTTGCCTGG [AAACATGCTAG_LTGcore_CT_RTGcore_CC] (site AAACATGCTAG) (LTG core: CT, RTG core: CC) please. 0.713

Report recombinant barcode read abundance (log10) for ATGCTTTCTTGGGTTCTAACCTGTTGCCTAC [ATGCTTTCTAG_LTGcore_CT_RTGcore_GT] (site ATGCTTTCTAG) (LTG core: CT, RTG core: GT) please. 0.191

Report recombinant barcode read abundance (log10) for GAGGCCTTCTGGGTTCTAACCTGTTGCCAAG [GAGGCCTCTTG_LTGcore_TC_RTGcore_CT] (site GAGGCCTCTTG) (LTG core: TC, RTG core: CT) please. 0.0445

Report recombinant barcode read abundance (log10) for GGGAGCCTTTGGGTTCTAACCTGTTGCTGAA [GGGAGCCCTCA_LTGcore_TT_RTGcore_TT] (site GGGAGCCCTCA) (LTG core: TT, RTG core: TT) please. 0.11

Report recombinant barcode read abundance (log10) for GAGGCCTCTTGGGTTCTAACCTGTTGCCAGT [GAGGCCTCTTG_LTGcore_CT_RTGcore_AC] (site GAGGCCTCTTG) (LTG core: CT, RTG core: AC) please. 0.0794

Report recombinant barcode read abundance (log10) for GGTGCCCCTTGGGTTCTAACCTGTTGCCGTC [GGTGCCCCTCG_LTGcore_CT_RTGcore_GA] (site GGTGCCCCTCG) (LTG core: CT, RTG core: GA) please. 0.332

Continuing:
Report recombinant barcode read abundance (log10) for AGGAGGTATTGGGTTCTAACCTGTTGCCTAG [AGGAGGTCTAG_LTGcore_AT_RTGcore_CT] (site AGGAGGTCTAG) (LTG core: AT, RTG core: CT) please. 0.214
